Method Notes: WST-1 dose-response cytotoxicity in THP-1 monocytes
Type: cell-based, human
Condition Description: human, THP-1 monocytes
Quantity Kind: cytotoxicity at 24 h, 32 µM (%)
State the answer as a number, implicitly in %.

For the compound CN(CCOc1ccc(CC2SC(=O)NC2=O)cc1)c1ccccn1 (stereo not shown) [RGZ, Rosiglitazone] , what cytotoxicity at 24 h, 32 µM is on record?
10

* * *

Method Notes: WST-1 dose-response cytotoxicity in THP-1 monocytes
Format: cell-based, human
Condition Description: human, THP-1 monocytes
Quantity Kind: viability at 24 h, 32 μM

For the compound Cc1c(C)c2c(c(C)c1O)CCC(C)(COc1ccc(CC3SC(=O)NC3=O)cc1)O2 (stereo not shown) , what viability at 24 h, 32 μM is on record?
~70%
